Provide the reported inhibition of each item.
Target: L-lactate dehydrogenase (Plasmodium falciparum (isolate CDC / Honduras)) (UniProt Q27743)
Sequence (Q27743 whole entry, looked up): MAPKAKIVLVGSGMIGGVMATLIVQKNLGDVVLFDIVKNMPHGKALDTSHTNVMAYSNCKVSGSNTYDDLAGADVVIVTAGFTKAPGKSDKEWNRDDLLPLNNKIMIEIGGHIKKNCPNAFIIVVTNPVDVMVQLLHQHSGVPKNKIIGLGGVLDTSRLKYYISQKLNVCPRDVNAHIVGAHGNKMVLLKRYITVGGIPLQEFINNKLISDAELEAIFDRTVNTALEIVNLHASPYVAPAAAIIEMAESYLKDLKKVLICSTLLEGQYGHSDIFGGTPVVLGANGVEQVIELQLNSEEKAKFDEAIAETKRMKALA
Assay: PfLDH activity inhibition – cell lysate, 3D7 strain, counter-screen for P. falciparum growth inhibition project (AID 2304);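 further: 0% = vehicle and 100% = reference inhibitor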
Conditions: P. falciparum 3D7 crude extract, LDH APAD/NBT absorbance; at 2 µM; active compounds read high
Numbers only, in %.

In the examples that follow, each entry is paired with its recorded inhibition.
1. Cc1cccc2[nH]c(-c3cccc(-c4cccc(CNCCc5ccncc5)c4)c3)nc12 | -2
2. N/C(=N\c1ncccn1)Nc1cccc(Cc2ccccc2)n1 | -2
3. CC(C)c1ccc(CN2CCC(CNC(=O)c3cc(-c4ccc(N(C)C)cc4)cs3)C2)cc1 (stereo not given) | 5
4. COc1cc(Nc2nccc(N3CCC(NC(=O)C(C)c4ccc(Cl)cc4)C3)n2)cc(OC)c1OC (stereo not given) | -7

Please find the next compound below.
(Q) Provide one value: measured inhibition of O=C(/C=C/c1ccccc1Cl)NC1CCC(CN2CCC(c3c[nH]c4ccncc34)CC2)CC1 (stereo not given)
(A) -2

###

Task for the reader: assign each of the following molecules its reported growth inhibition.
Experiment: inhibition of 3D7 malaria parasite growth – strain 3D7 (AID 2306);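 further: 0% = DMSO wells and 100% = chloroquine plus artemisinin control wells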
Conditions: P. falciparum 3D7 erythrocytic growth, LDH absorbance, 72 h; at 2 µM; active compounds read high
Numbers only, in %.

1. Cc1cc(N2CCCC2)nc(Nc2ccc(NC(=O)c3ccco3)cc2)n1 | 100
2. Cc1cc(Nc2ccccc2)nc(NCCOc2ccccc2)n1 | 100
3. NC1=NC(CCc2ccccc2)N(c2ccc(Cl)cc2)C(N)=N1 (stereo not given) | 94
4. C=CCn1c(=N)c(C(=O)NC2CCCCC2)cc2c(=O)n3cccc(C)c3nc21 | 92
5. NC(N)=NCCCCN(Cc1ccccc1)c1ccccc1 | 100

Respectfully, I request growth inhibition for each entry included below.
1. O=c1cc(NCCC(CNCCc2ccccc2)NCc2cc(Br)cc(Br)c2)[nH]c2ccccc12 (stereo not given)
2. Cc1cc(N[C@@H](Cc2ccccc2)C(=O)NCCCOC(C)C)nc(NCC2CCCCC2)n1
3. O=C(NC1CCCCC1)N(Cc1ccccc1-c1ccc(CNCCc2ccccc2)cc1)C1CCN(Cc2ccccc2)CC1

(A)
98
94
90

Give growth inhibition for each listed item.
1. COc1cccc(NC(=O)Nc2cc(C)nc3ccccc23)c1
2. CN(C)CCN(C)Cc1ccc(-c2ccc(NS(=O)(=O)c3cccc4cccnc34)cc2)cc1

(A)
1. 100
2. 93

###

Assay: inhibition of 3D7 malaria parasite growth – strain 3D7 (AID 2306);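 further: 0% = DMSO wells and 100% = chloroquine plus artemisinin control wells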
Details: P. falciparum 3D7 erythrocytic growth, LDH absorbance, 72 h; at 2 µM; active compounds read high
Answer each item with its documented growth inhibition.
Give bare numbers, in %.

Would you mind listing growth inhibition for each of the following compounds?
1. CC(C)N1CCCN(C(=O)C2CCN(c3ccc(C(=O)N4CCCC4)cn3)CC2)CC1
2. COc1ccc(S(=O)(=O)N2CCC(NS(=O)(=O)c3ccc(F)cc3)CC2)cc1

(A)
[86, 80]

Field: growth inhibition. Fill in for each record below.
1. O=C(NCc1cccnc1)C(c1cc2ccccc2o1)N1CCN(C(c2ccccc2)c2ccccc2)CC1 (centres undefined)
2. Oc1ccc2c(c1CNC1CCCCC1)CCCC2

(A)
1: 95; 2: 98

Provide each entry's growth inhibition from the list below.
1. Cc1[nH]c(C)c(-c2ccc(OCc3ccc(F)cc3)cc2)c(=O)c1Cl
2. Cc1ccc(C2CCN(CCCCNC(=O)c3ccc(NC(=O)c4ccc(Cl)cc4)cc3)CC2)c(C)c1
3. Cc1cccc2[nH]c(-c3ccc(-c4ccc(CNCc5ccc(CN)cc5)cc4)s3)nc12
4. CCc1ccnc2c(N3CCCC3=O)cc(C(=O)N[C@@H](Cc3ccccc3)[C@H](O)CNC3CCOCC3)cc12
5. CCNc1cc(C)nc(Nc2ccc(NC(=O)Cc3ccc(OC)cc3)cc2)n1
6. COc1c(C2CCN(CCCCNC(=O)c3ccc(-c4ccc(Cl)cc4)c(OCCN(C)C)c3)CC2)ccc2c1CCCC2
7. CCCC(=O)c1cnc2c(Oc3cc(Cl)ncn3)cccc2c1Nc1ccccc1C
8. CCc1c(C)nc(-n2nc(C)cc2NC(=O)CCc2ccccc2)[nH]c1=O

(A)
1: 95; 2: 96; 3: 101; 4: 99; 5: 101; 6: 101; 7: 99; 8: 97

Hi, could you look up growth inhibition for each item in my list?
1. Cc1cccc2[nH]c(-c3cccc(-c4cccc(NC(=O)C(C)CN(C)C)c4)c3)nc12 (centres undefined)
2. Cc1nc(-c2ccc(-c3ccc(C(=O)Nc4ccc(I)c(OCCN5CCCC5)c4)cc3)c(C)c2)no1
3. CCCCCCn1c(Sc2ccc(C#N)c([N+](=O)[O-])c2)nnc1-c1cc(OC)cc(OC)c1
4. O=C(/C=C/c1ccc(Cl)c(Cl)c1)NCCCCCN1CCC(NC(=O)Nc2cc(F)cc(F)c2)CC1
5. CCCN(CCCCCCN(CCC)CCc1ccc(O)c(O)c1)CCc1ccc(O)cc1
6. CCOC(=O)c1[nH]c(-c2cccc(F)c2)nc1N
7. O=C(Nc1cccc(CN2CCCN(Cc3cccc(O)c3)CC2)c1)c1ccc(-c2ccccc2)cc1
8. C=CCOC(=O)N1CCC(CNCc2cccc(-c3ccc(-c4nc5ccccc5[nH]4)s3)c2)C1 (centres undefined)

(A)
101
95
95
101
90
98
101
99

For each of the compounds below, note its growth inhibition.
1. CCNc1cc(C(=O)N[C@@H](Cc2ccccc2)[C@H](O)CNCC(C)C)cc(N2CCCC2=O)c1
2. COc1ccc(Br)cc1/C=C/C(=O)Nc1ccc(C2CCCN(C)C2)cc1 (centres undefined)
3. CC(O)c1cccc(-c2ccc(Nc3ccnc4cc(-c5nccs5)ccc34)cc2)c1 (centres undefined)
4. COc1ccc2nccc([C@@H](O)CN3CCC(NCc4cc5sccc5nc4C(F)(F)F)CC3)c2c1
5. COc1ccc2nccc([C@@H](O)CN3CCC(NCc4ccc5c(n4)NCCC5)CC3)c2c1

(A)
98
100
91
89
101

For each of the items listed, what is its growth inhibition?
1. COc1ccc(C(C(=O)NC2CCN(C[C@H](O)c3ccnc4ccc(OC)cc34)CC2)N2CCc3ccccc3C2)cc1 (some centres undefined)
2. CC(C)NC(=O)c1cccc(-c2cccc(OCCN3CCSCC3c3ccccc3)c2)c1 (centres undefined)
3. NC1=NC2(CCCC2)N(c2ccc(Cl)cc2)C(N)=N1

(A)
1: 96; 2: 89; 3: 97

Hi there! I need growth inhibition for each item below, if you can.
1. c1cc(CNCCc2ccncc2)cc(-c2ccc(-c3nc4ccccc4[nH]3)s2)c1
2. O=C(NCc1ccccc1)c1ccc(C(=O)NCC2CNCCO2)cc1 (centres undefined)
3. Cc1cccc(-n2nc(C)c3c2NC(=O)CC3C(=O)c2ccc(Cl)s2)c1 (centres undefined)
4. Cc1cc(N2CCN(C3CCCCC3)CC2)nc2cccc(O)c12
5. Brc1ccccc1CNc1ccnc(NCCn2ccnc2)n1
6. CC(C)(C)OC(=O)NCc1ccc(Nc2nnc(-c3cccc(OCC(=O)NCc4cc(C(F)(F)F)cc(C(F)(F)F)c4)c3)o2)cc1
7. N#Cc1ccc(-c2ccc(C(=O)NCCCCN3CCC(c4ccc5c(c4OCC(N)=O)CCCC5)CC3)cc2)cc1

(A)
101
92
92
101
99
90
87

Report growth inhibition for every entry below.
1. NC(N)=Nc1ccc(OCCCCCOc2ccc(N=C(N)N)cc2Br)c(Br)c1
2. Cc1cccc2[nH]c(-c3ccc(-c4cccc(NC(=O)Nc5ccsc5)c4)s3)nc12
3. COc1ccc(CNCCc2cccs2)cc1-c1ccc(S(=O)(=O)NCCN2CCCC2)cc1
4. Cc1c(Cl)ccc2c(C(=O)Nc3ccncc3)cc(-c3cccnc3)nc12

(A)
[92, 100, 99, 99]
